Reported melting point values for a set of compounds

{"compound": "Nc1c(NC(=O)CCCc2ccccc2)ccc(NCc2ccc(C(F)(F)F)cc2)c1F [Compound 7]", "melting point": "198.5 to 199.5 °C"}
{"compound": "Nc1c(NC(=O)CCc2ccco2)ccc(NCc2ccc(C(F)(F)F)cc2)c1F [Compound 6]", "melting point": "212.2 to 213.5 °C"}
{"compound": "Nc1c(NC(=O)CC2CCCC2)ccc(NCc2ccc(C(F)(F)F)cc2)c1F [Compound 4]", "melting point": "196.9 to 197.5 °C"}
{"compound": "Nc1c(NC(=O)C2CCCC2)ccc(NCc2ccc(C(F)(F)F)cc2)c1F [Compound 3]", "melting point": "222.9 to 223.5 °C"}
{"compound": "Nc1c(NC(=O)CCN2CCCCC2)ccc(NCc2ccc(C(F)(F)F)cc2)c1F [Compound 5]", "melting point": "202.1 to 203.5 °C"}

====

Target: KCNQ2/3 channels (Homo sapiens, UniProt O43525+O43526)
Sequence (O43525 whole entry): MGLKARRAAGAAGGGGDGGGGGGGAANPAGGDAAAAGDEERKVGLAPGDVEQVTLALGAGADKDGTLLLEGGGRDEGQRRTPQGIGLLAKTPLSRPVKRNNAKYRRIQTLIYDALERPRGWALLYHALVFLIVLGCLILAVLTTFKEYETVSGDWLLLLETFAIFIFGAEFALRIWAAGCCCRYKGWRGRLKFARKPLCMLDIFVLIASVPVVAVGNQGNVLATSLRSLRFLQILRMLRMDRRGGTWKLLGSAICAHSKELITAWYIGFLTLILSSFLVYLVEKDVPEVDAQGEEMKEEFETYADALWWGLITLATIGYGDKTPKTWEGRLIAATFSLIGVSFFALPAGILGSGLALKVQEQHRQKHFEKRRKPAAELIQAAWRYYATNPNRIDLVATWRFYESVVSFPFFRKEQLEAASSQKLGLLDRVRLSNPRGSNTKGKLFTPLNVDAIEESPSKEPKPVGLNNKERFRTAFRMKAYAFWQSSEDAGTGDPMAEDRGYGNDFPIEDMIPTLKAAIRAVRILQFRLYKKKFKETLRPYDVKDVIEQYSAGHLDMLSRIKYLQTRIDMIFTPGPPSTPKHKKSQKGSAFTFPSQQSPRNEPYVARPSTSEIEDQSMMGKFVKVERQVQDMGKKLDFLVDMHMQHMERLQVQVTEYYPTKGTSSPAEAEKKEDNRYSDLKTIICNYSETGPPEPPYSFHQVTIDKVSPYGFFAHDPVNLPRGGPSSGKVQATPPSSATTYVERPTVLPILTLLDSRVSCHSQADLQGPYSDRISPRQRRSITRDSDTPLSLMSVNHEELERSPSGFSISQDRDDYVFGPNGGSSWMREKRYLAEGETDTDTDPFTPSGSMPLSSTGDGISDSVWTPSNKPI
Sequence (O43526 whole entry): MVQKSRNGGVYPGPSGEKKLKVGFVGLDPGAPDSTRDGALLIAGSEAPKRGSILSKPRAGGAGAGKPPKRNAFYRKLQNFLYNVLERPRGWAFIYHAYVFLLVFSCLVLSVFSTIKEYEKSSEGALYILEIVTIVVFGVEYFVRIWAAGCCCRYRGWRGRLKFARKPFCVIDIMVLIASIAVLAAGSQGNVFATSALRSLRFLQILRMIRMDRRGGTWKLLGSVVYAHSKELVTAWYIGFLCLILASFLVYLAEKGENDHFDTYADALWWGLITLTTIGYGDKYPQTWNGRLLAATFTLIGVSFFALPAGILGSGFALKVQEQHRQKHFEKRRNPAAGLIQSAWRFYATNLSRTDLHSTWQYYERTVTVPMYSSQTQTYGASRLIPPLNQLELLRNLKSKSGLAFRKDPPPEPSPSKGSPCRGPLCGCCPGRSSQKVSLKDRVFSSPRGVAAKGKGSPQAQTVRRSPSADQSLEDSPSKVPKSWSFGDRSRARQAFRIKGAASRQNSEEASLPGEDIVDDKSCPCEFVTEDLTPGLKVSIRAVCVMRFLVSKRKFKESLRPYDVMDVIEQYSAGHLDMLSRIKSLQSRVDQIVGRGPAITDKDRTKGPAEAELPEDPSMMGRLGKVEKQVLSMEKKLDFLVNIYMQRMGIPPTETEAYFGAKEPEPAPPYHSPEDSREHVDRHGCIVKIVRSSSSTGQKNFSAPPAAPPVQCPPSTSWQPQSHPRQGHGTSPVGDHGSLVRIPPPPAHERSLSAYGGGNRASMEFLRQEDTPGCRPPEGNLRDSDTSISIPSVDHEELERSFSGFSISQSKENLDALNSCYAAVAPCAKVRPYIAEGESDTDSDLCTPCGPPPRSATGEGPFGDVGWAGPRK
Assay: High-throughput determination of Rb+ efflux by atomic absorption spectrometry
Format: cell-based
Conditions: Rb+ efflux by AAS, CHO cells with stable KCNQ2/3 channels; read-out: KCNQ2/3 EC50
pEC50: −log10 of the molar value.

{"molecule": "Nc1c(NC(=O)CCN2CCCCC2)ccc(NCc2ccc(C(F)(F)F)cc2)c1F [Compound 5]", "pEC50": 6.12}
{"molecule": "Nc1c(NC(=O)CCCc2ccccc2)ccc(NCc2ccc(C(F)(F)F)cc2)c1F [Compound 7]", "pEC50": 5.28}
{"molecule": "Nc1c(NC(=O)CC2CCCC2)ccc(NCc2ccc(C(F)(F)F)cc2)c1F [Compound 4]", "pEC50": 6.24}
{"molecule": "CC(C)(C)CC(=O)Nc1ccc(NCc2ccc(C(F)(F)F)cc2)c(F)c1N [Compound 2]", "pEC50": 6.68}

====

Target: KCNQ2/3 channels (Homo sapiens, UniProt O43525+O43526)
Assay: High-throughput determination of Rb+ efflux by atomic absorption spectrometry
Format: cell-based
property.name: EC50 (nM)

{"molecule": "CCOC(=O)Nc1ccc(NCc2ccc(F)cc2)cc1N [RTG, Retigabine, reference compound]", "value.measured": 860}

====

Biological target: KCNQ2/3 channels (Homo sapiens, UniProt O43525+O43526)
Assay: High-throughput determination of Rb+ efflux by atomic absorption spectrometry
Assay type: cell-based
Settings: Rb+ efflux by AAS, CHO cells with stable KCNQ2/3 channels; read-out: KCNQ2/3 EC50
Reported EC50 values for a set of compounds

{"compound": "Nc1c(NC(=O)CCC2CCCC2)ccc(NCc2ccc(C(F)(F)F)cc2)c1F [Compound 1]", "EC50 [nM]": 150}
{"compound": "Nc1c(NC(=O)CCc2ccco2)ccc(NCc2ccc(C(F)(F)F)cc2)c1F [Compound 6]", "EC50 [nM]": 3580}
{"compound": "Nc1c(NC(=O)C2CCCC2)ccc(NCc2ccc(C(F)(F)F)cc2)c1F [Compound 3]", "EC50 [nM]": 2830}
